measurement-target: Cytochrome P450 2C9 (Homo sapiens)
experiment-notes: Cytochrome P450 Family 2 Subfamily C Member 9 (CYP2C9) small molecule antagonists: luciferase reporter qHTS assay (AID 1671198); note: nearly all actives have a fitted effect of over 50% in size
condition-details: P450-Glo CYP2C9 enzyme assay, luciferin luminescence; series mostly up to 115 µM
Inconclusive results are not listed. Active and inactive are the calls of the source. Calls come from the whole dose curve; as a rule, active = well fitted inhibition curve with a large enough effect in the repeat runs; inconclusive = weak or mixed curves; inactive = no such curve, though single readings can be large or run the other way.
// allowed return values: active, inactive

Ask: Given CCOC(=O)[C@H](CCc1ccccc1)N[C@H]1CS[C@H](c2cccs2)CN(CC(=O)O)C1=O , state the outcome it received in this test.
Result: inactive

Ask: Can you look up the reported call for CCCCCC(CC)OC(=O)CCCOc1ccc(Cl)cc1Cl (centres undefined) for me?
Result: active

Ask: Lab log entry: O=C1Nc2ccccc2C1=O — outcome as called in the assay?
Result: inactive

Ask: For CC(=O)Nc1ccc(OCCOCCOc2ccc(NC(C)=O)cc2)cc1 , which call appears in the assay record?
Result: active

Ask: Recorded call for CC(C)OCCO ?
Result: inactive

Ask: Test call, this molecule: CCOC(=O)CC
Result: inactive

Ask: Query: recorded result category for NNC(=O)OCc1ccccc1 in this test
Result: active

Ask: Outcome logged for Cc1ccc(O)c(C(=O)c2ccccc2)c1 in this assay:
Result: active

Ask: State the result this test recorded for C=CCn1cc[n+](C)c1 .
Result: inactive

Origin of the recorded values: PubChem BioAssay (Tox21)
